- TARGET_OR_TEST_SYSTEM: serotonin S2 receptor (Rattus norvegicus)
- Sequence (P14842 whole entry): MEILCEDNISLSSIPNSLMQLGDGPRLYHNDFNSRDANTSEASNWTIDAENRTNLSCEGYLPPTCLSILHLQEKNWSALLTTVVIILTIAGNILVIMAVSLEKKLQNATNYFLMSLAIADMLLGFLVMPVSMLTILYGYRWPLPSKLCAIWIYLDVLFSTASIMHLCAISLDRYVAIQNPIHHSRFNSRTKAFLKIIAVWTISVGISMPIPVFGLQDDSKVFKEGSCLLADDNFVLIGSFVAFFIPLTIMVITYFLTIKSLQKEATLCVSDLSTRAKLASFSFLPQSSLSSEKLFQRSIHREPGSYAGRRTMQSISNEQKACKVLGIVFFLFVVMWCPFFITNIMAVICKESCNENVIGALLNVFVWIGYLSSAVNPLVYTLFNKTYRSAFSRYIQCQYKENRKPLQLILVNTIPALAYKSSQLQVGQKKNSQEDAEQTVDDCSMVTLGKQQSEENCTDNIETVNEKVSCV
Please go through the items and note down their Ki.
# unit: nM | format: bare number

// Ki lookup, key: CCS(=O)(=O)c1cc(N2CCNCC2)cc(-c2ccc(F)cc2)c1OC [Example 202]
6.33

One more compound: CCC(F)c1cc(N2CCN(C)CC2)cc(-c2ccccc2Cl)c1Cl (stereo not drawn) [Example 22]
19.2

One more compound: CCN1CCN(c2cc(-c3ccccc3)c(OC)c(C3CCCO3)c2)CC1 (stereo not drawn) [Example 95]
40.9

One more compound: CC[C@@H](F)c1cc(N2CCN(CC)CC2)cc(-c2ccccc2C(F)(F)F)c1Cl [Example 216]
79

One more compound: CCN1CCN(c2cc(-c3ccccc3)c(OC)c(C(F)Cc3ccccc3)c2)CC1 (stereo not drawn) [Example 96]
35.3

One more compound: CCC(O)c1cc(N2CCN(CC)CC2)cc(-c2ccccc2)c1OC (stereo not drawn) [Example 83]
84.5

One more compound: CCCS(=O)(=O)Nc1cc(N2CCN(CC)CC2)cc(-c2ccccc2CC)c1Cl [Example 194]
4.45

One more compound: CCC(F)c1cc(N2CCN(CC)CC2)cc(-c2ccccc2C)c1C#N (stereo not drawn) [Example 164]
12

One more compound: CC[C@@H](F)c1cc(N2CCN(CCO)CC2)cc(-c2ccc(F)cc2C)c1Cl [Example 223]
1860
